biological target: CB1 cannabinoid receptor (Rattus norvegicus, UniProt P20272); construct: membranes were prepared from rat forebrain membranes; from tissue; host or cells: rat forebrain; assay: CB1 receptor binding, rat forebrain membranes, [3H] CP-55,940 displacement; settings: ratio of CB2 Ki to CB1 Ki
Sequence (P20272 whole entry): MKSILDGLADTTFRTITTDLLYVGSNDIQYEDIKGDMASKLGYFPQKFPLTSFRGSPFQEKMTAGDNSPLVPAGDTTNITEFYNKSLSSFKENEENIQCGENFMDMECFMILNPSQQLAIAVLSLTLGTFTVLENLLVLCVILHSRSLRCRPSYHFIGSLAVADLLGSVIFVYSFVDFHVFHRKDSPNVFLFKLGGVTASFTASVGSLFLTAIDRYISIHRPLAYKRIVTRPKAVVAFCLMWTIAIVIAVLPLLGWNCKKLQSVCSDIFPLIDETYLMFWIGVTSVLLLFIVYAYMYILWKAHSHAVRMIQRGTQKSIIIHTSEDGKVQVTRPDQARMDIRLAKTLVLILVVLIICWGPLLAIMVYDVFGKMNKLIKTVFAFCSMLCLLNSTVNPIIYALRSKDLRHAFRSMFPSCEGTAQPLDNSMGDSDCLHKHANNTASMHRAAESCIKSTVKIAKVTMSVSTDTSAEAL
Quick list: selectivity CB1 per entry.
MEASUREMENT LABEL: selectivity CB1

1. Cc1c(C(=O)NN2CCCCC2)nn(-c2ccc(Cl)cc2Cl)c1-c1ccc(-c2nnn[nH]2)cc1
1.5
2. CN(C(=O)c1nn(-c2ccc(Cl)cc2Cl)c(-c2ccc(-c3nnnn3C)cc2)c1CO)C1CCCCC1
1.3
3. CN(C(=O)c1nn(-c2ccc(Cl)cc2Cl)c(-c2ccc(-c3ccncc3)cc2)c1CO)C1CCCCC1
3.3
4. Cc1c(NC(=O)NC2CCCCC2)nn(-c2ccc(Cl)cc2Cl)c1-c1ccc(I)cc1
838.1
5. Cc1c(NC(=O)C2CCCCC2)nn(-c2ccc(Cl)cc2Cl)c1-c1ccc(Br)cc1
6.4
6. O=C(NN1CCCCC1)c1nn(-c2ccc(Cl)cc2Cl)c(-c2ccc(-c3cccnc3)cc2)c1CO
398
7. Cc1c(C(=O)N(C)C2CCCCC2)nn(-c2ccc(Cl)cc2Cl)c1-c1ccc(-c2ccncc2)cc1
17.4

----------
Molecular target: CB2 receptor (Mus musculus)
Construct: membranes were prepared from frozen mouse spleen; from tissue; host or cells: mouse spleen
Sequence (P47936 whole entry): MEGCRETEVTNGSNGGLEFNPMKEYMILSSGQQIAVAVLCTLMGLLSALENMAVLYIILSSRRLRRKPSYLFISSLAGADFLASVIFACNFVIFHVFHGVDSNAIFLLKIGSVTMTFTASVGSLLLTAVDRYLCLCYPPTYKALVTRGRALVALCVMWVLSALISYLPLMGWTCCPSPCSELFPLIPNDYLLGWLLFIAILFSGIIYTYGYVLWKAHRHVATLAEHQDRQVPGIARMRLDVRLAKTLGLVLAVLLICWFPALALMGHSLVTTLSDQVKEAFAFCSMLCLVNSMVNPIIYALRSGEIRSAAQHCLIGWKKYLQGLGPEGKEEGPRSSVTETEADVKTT
Assay: CB2 receptor binding, mouse spleen membranes, same manner as the CB1 binding assay
Conditions: ratio of CB1 Ki to CB2 Ki
Method: Some of the inventive analogs were tested for CB2 receptor binding affinity and for CB1 receptor affinity (to determine selectivity). […] The lower the Ki value the higher the binding affinity. The treated membranes were subsequently used in the binding assay described below. […] Radioactivity was detected using MicroScint 20 scintillation cocktail added directly to the dried filterplates, and the filterplates were counted using a Packard Instruments Top-Count. […]
MEASUREMENT LABEL: selectivity CB2

1) Cc1c(C(=O)NCC2CCC3CC2C3(C)C)nn(CCCCCCl)c1-c1ccccc1 (stereo not shown)
2
2) Cc1c(C(=O)NC23CC4CC(CC(C4)C2)C3)nn(CCCCCI)c1-c1ccccc1
1.3
3) Cc1c(C=CC23CC4CC(CC(C4)C2)C3)nn(-c2ccc(Cl)cc2Cl)c1-c1ccc(Br)cc1
4.4
4) O=C(NC12CC3CC(CC(C3)C1)C2)c1cc(-c2ccccc2)n(CCCCCCl)n1
2.5
5) Cc1c(C(=O)NCC23CC4CC(CC(C4)C2)C3)nn(CCCCCCl)c1-c1ccccc1
3
6) Cc1c(C(=O)NC2CC(C)C3CC2C3(C)C)nn(CCCCCCl)c1-c1ccccc1 (stereo not shown)
1.7
7) Cc1c(C(=O)NC23CC4CC(CC(C4)C2)C3)nn(CCCCCCl)c1-c1ccccc1
1.8
8) Cc1c(C(=O)NC2CC3CCC2(C)C3(C)C)nn(CCCCCCl)c1-c1ccccc1 (stereo not shown)
2.4
9) Cc1c(C(=O)NC23CC4CC(CC(C4)C2)C3)nn(CCCCCN=[N+]=[N-])c1-c1ccccc1
4
10) Cc1c(C(=O)N(C)C2CCCCC2)nn(-c2ccc(Cl)cc2Cl)c1-c1ccc(-c2nnnn2C)cc1
1.4

----------
# reported selectivity CB1; entries follow
molecular target: CB1 cannabinoid receptor (Rattus norvegicus); construct: membranes were prepared from rat forebrain membranes; from tissue; host or cells: rat forebrain; assay: CB1 receptor binding, rat forebrain membranes, [3H] CP-55,940 displacement; settings: ratio of CB2 Ki to CB1 Ki
MEASUREMENT LABEL: selectivity CB1

1. Cc1c(C=Cc2ccccc2)nn(-c2ccc(Cl)cc2Cl)c1-c1ccc(Br)cc1 [Compound 1-23]
49.6
2. Cc1c(C(=O)NC2CCCCC2)nn(-c2ccc(Cl)cc2Cl)c1-c1ccc(-c2nnnn2C)cc1 [Compound 2-8]
8.9
3. COCc1c(C(=O)NC2CCCCC2)nn(-c2ccc(Cl)cc2Cl)c1-c1ccc(-c2ccncc2)cc1 [Compound 1-19]
18.6
4. CCOCc1c(C(=O)NN2CCCCC2)nn(-c2ccc(Cl)cc2Cl)c1-c1ccc(Br)cc1 [Compound 1-12]
11
5. Cc1c(C(=O)NN2CCCCC2)nn(-c2ccc(Cl)cc2Cl)c1-c1ccc(-c2nnn(C)n2)cc1 [Compound 2-3]
86.2
6. Cc1c(CCC2CCCCC2)nn(-c2ccc(Cl)cc2Cl)c1-c1ccc(Br)cc1 [Compound 1-27]
25.3
7. Cc1c(C(=O)N(C)C2CCCCC2)nn(-c2ccc(Cl)cc2Cl)c1-c1ccc(C#N)cc1 [Compound 3-15]
216.5
8. Cc1c(C(=O)NN2CCCCC2)nn(-c2ccc(Cl)cc2Cl)c1-c1ccc(-c2ccc(Cl)cc2)cc1 [Compound 1-2]
274

# credit: patent US8084467B2
